Organism: Homo sapiens
Assay Overview: Selectivity index, ratio of IC50 for human MAO-A to IC50 for human MAO-B
Ratio IC50 overview
Measurement Label: Ratio IC50

1) O=C(/C=C/c1ccc(F)cc1)c1ccc2c(c1)OCCO2 = > 1000
2) CC/C(C)=N/Oc1ccc(C(=O)/C=C/c2ccccc2)cc1 = > 120
3) O=C1/C(=C/c2ccc(Cl)cc2)CCc2ccccc21 = > 105
4) COc1ccc2c(=O)cc(-n3cnc4ccccc43)oc2c1 = > 300
5) O=C(/C=C/c1ccc(F)cc1)c1ccc2c(c1)OCO2 = > 1000

----------
Measurement Target: Amine oxidase [flavin-containing] B (Homo sapiens, UniProt P27338)
Sequence (P27338 whole entry): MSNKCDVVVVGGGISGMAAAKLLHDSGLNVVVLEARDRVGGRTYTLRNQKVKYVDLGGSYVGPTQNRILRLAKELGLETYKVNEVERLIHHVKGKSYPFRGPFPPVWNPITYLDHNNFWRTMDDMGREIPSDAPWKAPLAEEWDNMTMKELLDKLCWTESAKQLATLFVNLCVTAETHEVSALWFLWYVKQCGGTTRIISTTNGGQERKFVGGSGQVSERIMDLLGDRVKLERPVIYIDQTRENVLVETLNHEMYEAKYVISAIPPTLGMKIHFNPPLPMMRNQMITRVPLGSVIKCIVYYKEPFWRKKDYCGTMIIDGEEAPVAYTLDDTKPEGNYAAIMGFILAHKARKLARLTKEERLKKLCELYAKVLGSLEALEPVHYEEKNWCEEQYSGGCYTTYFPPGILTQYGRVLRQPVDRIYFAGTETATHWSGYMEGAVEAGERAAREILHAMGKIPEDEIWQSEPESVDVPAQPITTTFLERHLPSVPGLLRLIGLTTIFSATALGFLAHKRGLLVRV
Assay Overview: Inhibition of human MAO-B using benzylamine as substrate
pIC50: −log10 of the molar value.
pIC50 overview
Measurement Label: pIC50

1. COc1ccc(/C=C/C(=O)c2ccc(ON=C3CCCCC3)cc2)cc1 = > 6.52
2. O=C(/C=C/c1cccc(F)c1)c1ccc(N2CCOCC2)cc1 = < 7.06
3. COc1ccc(C(=O)/C=C/c2ccc(O/N=C3\CCc4ccccc43)cc2)cc1 = > 7.00
4. O=C(/C=C/c1ccc(F)cc1)c1ccc(-n2ccnc2)cc1 = < 5.00
5. O=C(/C=C/c1ccc(ON=C2CCCCC2)cc1)c1ccc(F)cc1 = > 7.30
6. COc1cccc(/C=C/C(=O)c2ccc(O/N=C(\C)c3cccs3)cc2)c1 = > 6.52
7. COc1ccc(C(=O)/C=C/c2ccc(ON=C(c3ccccc3)c3ccccc3)cc2)cc1 = > 7.00
8. O=C(/C=C/c1ccc(ON=C(c2ccccc2)c2ccccc2)cc1)c1ccc(F)cc1 = > 7.30
